Would you kindly list TGI for each of these molecules?
# Tested on: SF-295 CNS
# Assay text: NCI tumour cell line growth inhibition, 48 h
Note: unit µM is implicit; provide only the numeric part.

// fetch SF-295 CNS TGI for COc1cccc2c1ccc1nc3cccc(C(=O)N[C@H](C)CN(C)C)c3nc12
2.58

// fetch SF-295 CNS TGI for O=C(Nc1cccc(-n2cc(-c3ccncc3)c(-c3ccc(Cl)c(O)c3)n2)c1)c1ccc(N2CCOCC2)c(C(F)(F)F)c1
7.55

// fetch SF-295 CNS TGI for O=C(C[n+]1ccc2ccccc2c1)c1ccc2ccc3ccccc3c2c1
16.4

// fetch SF-295 CNS TGI for CCOC(=O)c1c2c(n(Cc3ccc(Cl)cc3Cl)c1C)-c1nc[nH]c1C(=O)C2=O
92.2
